- Test system: primary rat mixed cortical cells
- assay comment: In vitro myelination assay (MBP positive myelin strands, fold myelin pixels above background)
- Assay type: cell-based
- applied conditions: Rattus norvegicus, 10.0 μM compound, relative to baseline of no added compound; read-out: Fold myelin pixels above background, 10.0 μM
Let's look at some compounds and their measured fold induction at 10 µM.

Study these solved cases before continuing.
[
  {
    "compound": "CC(=O)N1CCCN(c2cc(C)cc(Nc3ncn(-c4ccccc4)n3)c2)CC1 [Compound 280]",
    "fold induction at 10 µM": "10 to 100"
  },
  {
    "compound": "Cc1cc(Nc2ncn(-c3ccc(C#N)cc3)n2)cc(N2CCCC2)c1 [Compound 186]",
    "fold induction at 10 µM": "10 to 100"
  }
]

Enquiry: # query: fold induction at 10 µM | item Cc1cc(Nc2ncn(-c3cccc(F)c3)n2)cc(N2CCN(C3(C)COC3)CC2)c1 [Compound 375] | system: primary rat mixed cortical cells
Return: 10 to 100
